Data origin, for the record: patent US12410211B2

# TEST_DETAILS: Therapeutic index (NOAEL/NOEL): paleness, lethargy, ataxia observation in Sprague-Dawley rats (Example 7)
# Format: in vivo
# PROTOCOL_CONDITIONS: S.C.; rat
MEASURED_METRIC: NOAEL/NOEL (therapeutic index)

Example entries and their recorded answers appear below.
COMPOUND | RESULT
NCCCC[C@@H](NC(=O)[C@@H]1CCCN1C(=O)[C@@H]1CSSCCC(=O)N[C@@H](Cc2ccc(O)cc2)C(=O)N[C@@H](Cc2ccccc2)C(=O)N[C@@H](CCCC(N)=O)C(=O)N[C@@H](CC(N)=O)C(=O)N1)C(=O)NCC(N)=O | 30
NCC(=O)NCC(=O)NCC(=O)NCC(=O)NCC(=O)NCC(=O)NCC(=O)NCC(=O)NCCCC[C@H](NC(=O)[C@@H]1CCCN1C(=O)[C@@H]1CSSCCC(=O)N[C@@H](Cc2ccc(O)cc2)C(=O)N[C@@H](Cc2ccccc2)C(=O)N[C@@H](CCCC(N)=O)C(=O)N[C@@H](CC(N)=O)C(=O)N1)C(=O)NCC(N)=O | 100
NCC(=O)NCC(=O)NCC(=O)NCC(=O)NCC(=O)NCCCC[C@H](NC(=O)[C@@H]1CCCN1C(=O)[C@@H]1CSSCCC(=O)N[C@@H](Cc2ccc(O)cc2)C(=O)N[C@@H](Cc2ccccc2)C(=O)N[C@@H](CCCC(N)=O)C(=O)N[C@@H](CC(N)=O)C(=O)N1)C(=O)NCC(N)=O | 100
NCC(=O)NCC(=O)NCC(=O)NCCCC[C@H](NC(=O)[C@@H]1CCCN1C(=O)[C@@H]1CSSCCC(=O)N[C@@H](Cc2ccc(O)cc2)C(=O)N[C@@H](Cc2ccccc2)C(=O)N[C@@H](CCCC(N)=O)C(=O)N[C@@H](CC(N)=O)C(=O)N1)C(=O)NCC(N)=O | 100
CCCCCCCCCCCC(=O)NCCCC[C@H](NC(=O)[C@@H]1CCCN1C(=O)[C@@H]1CSSCCC(=O)N[C@@H](Cc2ccc(O)cc2)C(=O)N[C@@H](Cc2ccccc2)C(=O)N[C@@H](CCCC(N)=O)C(=O)N[C@@H](CC(N)=O)C(=O)N1)C(=O)NCC(N)=O | 90 (dose too

Supply recorded NOAEL/NOEL (therapeutic index) for `NCC(=O)NCC(=O)NCC(=O)NCC(=O)NCCCC[C@H](NC(=O)[C@@H]1CCCN1C(=O)[C@@H]1CSSCCC(=O)N[C@@H](Cc2ccc(O)cc2)C(=O)N[C@@H](Cc2ccccc2)C(=O)N[C@@H](CCCC(N)=O)C(=O)N[C@@H](CC(N)=O)C(=O)N1)C(=O)NCC(N)=O` here. 100

Using the record for `NCC(=O)NCC(=O)NCC(=O)NCC(=O)NCC(=O)NCC(=O)NCC(=O)NCC(=O)NCC(=O)NCCCC[C@H](NC(=O)[C@@H]1CCCN1C(=O)[C@@H]1CSSCCC(=O)N[C@@H](Cc2ccc(O)cc2)C(=O)N[C@@H](Cc2ccccc2)C(=O)N[C@@H](CCCC(N)=O)C(=O)N[C@@H](CC(N)=O)C(=O)N1)C(=O)NCC(N)=O` , state its measured NOAEL/NOEL (therapeutic index). 100

Specify measured NOAEL/NOEL (therapeutic index) for `NCCCC[C@H](NC(=O)[C@@H]1CCCN1C(=O)[C@@H]1CSSCCC(=O)N[C@@H](Cc2ccc(O)cc2)C(=O)N[C@@H](Cc2ccccc2)C(=O)N[C@@H](CCC(N)=O)C(=O)N[C@@H](CC(N)=O)C(=O)N1)C(=O)NCC(N)=O` . 20

Please indicate NOAEL/NOEL (therapeutic index) recorded for `NCC(=O)NCC(=O)NCC(=O)NCC(=O)NCC(=O)NCC(=O)NCCCC[C@H](NC(=O)[C@@H]1CCCN1C(=O)[C@@H]1CSSCCC(=O)N[C@@H](Cc2ccc(O)cc2)C(=O)N[C@@H](Cc2ccccc2)C(=O)N[C@@H](CCC(N)=O)C(=O)N[C@@H](CC(N)=O)C(=O)N1)C(=O)NCC(N)=O` 100

Supply recorded NOAEL/NOEL (therapeutic index) for `NCC(=O)NCC(=O)NCCCC[C@H](NC(=O)[C@@H]1CCCN1C(=O)[C@@H]1CSSCCC(=O)N[C@@H](Cc2ccc(O)cc2)C(=O)N[C@@H](Cc2ccccc2)C(=O)N[C@@H](CCCC(N)=O)C(=O)N[C@@H](CC(N)=O)C(=O)N1)C(=O)NCC(N)=O` here. 100

* * *

# TEST_DETAILS: Therapeutic index (NOAEL/NOEL): paleness, lethargy, ataxia observation in Sprague-Dawley rats (Example 7)
# Format: in vivo
# PROTOCOL_CONDITIONS: S.C.; rat
Collected Highest dose with no-observed effect level or paleness (NOEL) values appear next to each entry.
Respond numerically; units are µg/kg and should not be typed.

Completed entries (count: 5):
MOLECULE | OUTPUT_UNIT | NUMERIC_VALUE
NCCCC[C@H](NC(=O)[C@@H]1CCCN1C(=O)[C@@H]1CSSCCC(=O)N[C@@H](Cc2ccc(O)cc2)C(=O)N[C@@H](Cc2ccccc2)C(=O)N[C@@H](CCCC(N)=O)C(=O)N[C@@H](CC(N)=O)C(=O)N1)C(=O)NCC(N)=O [SEQ ID NO. 25, Mpa-Tyr-Phe-Hgn-Asn-Cys-Pro-Lys-Gly-NH2] | µg/kg | 1.5
NCC(=O)NCCCC[C@H](NC(=O)[C@@H]1CCCN1C(=O)[C@@H]1CSSCCC(=O)N[C@@H](Cc2ccc(O)cc2)C(=O)N[C@@H](Cc2ccccc2)C(=O)N[C@@H](CCCC(N)=O)C(=O)N[C@@H](CC(N)=O)C(=O)N1)C(=O)NCC(N)=O [SEQ ID NO. 8] | µg/kg | 1.5
NCC(=O)NCC(=O)NCC(=O)NCC(=O)NCCCC[C@H](NC(=O)[C@@H]1CCCN1C(=O)[C@@H]1CSSCCC(=O)N[C@@H](Cc2ccc(O)cc2)C(=O)N[C@@H](Cc2ccccc2)C(=O)N[C@@H](CCCC(N)=O)C(=O)N[C@@H](CC(N)=O)C(=O)N1)C(=O)NCC(N)=O [SEQ ID NO. 11] | µg/kg | 1.5
NCCCC[C@@H](NC(=O)[C@@H]1CCCN1C(=O)[C@@H]1CSSCCC(=O)N[C@@H](Cc2ccc(O)cc2)C(=O)N[C@@H](Cc2ccccc2)C(=O)N[C@@H](CCCC(N)=O)C(=O)N[C@@H](CC(N)=O)C(=O)N1)C(=O)NCC(N)=O [SEQ ID NO. 18, Mpa-Tyr-Phe-Hgn-Asn-Cys-Pro-dLys-Gly-NH2] | µg/kg | 5
NCCCC[C@H](NC(=O)[C@@H]1CCCN1C(=O)[C@@H]1CSSCCC(=O)N[C@@H](Cc2ccc(O)cc2)C(=O)N[C@@H](Cc2ccccc2)C(=O)N[C@@H](CCC(N)=O)C(=O)N[C@@H](CC(N)=O)C(=O)N1)C(=O)NCC(N)=O [SEQ ID NO. 32] | µg/kg | 0.5

For the molecule NCC(=O)NCC(=O)NCCCC[C@H](NC(=O)[C@@H]1CCCN1C(=O)[C@@H]1CSSCCC(=O)N[C@@H](Cc2ccc(O)cc2)C(=O)N[C@@H](Cc2ccccc2)C(=O)N[C@@H](CCCC(N)=O)C(=O)N[C@@H](CC(N)=O)C(=O)N1)C(=O)NCC(N)=O [SEQ ID NO. 9] , give its measured Highest dose with no-observed effect level or paleness (NOEL) value. 1.5

Find the measured Highest dose with no-observed effect level or paleness (NOEL) of NCC(=O)NCC(=O)NCC(=O)NCC(=O)NCC(=O)NCC(=O)NCC(=O)NCC(=O)NCC(=O)NCCCC[C@H](NC(=O)[C@@H]1CCCN1C(=O)[C@@H]1CSSCCC(=O)N[C@@H](Cc2ccc(O)cc2)C(=O)N[C@@H](Cc2ccccc2)C(=O)N[C@@H](CCC(N)=O)C(=O)N[C@@H](CC(N)=O)C(=O)N1)C(=O)NCC(N)=O [SEQ ID NO. 23] and report it. 1.5

* * *

# ASSAYED_SYSTEM: V1a receptor (Homo sapiens, UniProt P37288)
# Construct: host or cells: CHO cells
# Sequence (P37288 whole entry): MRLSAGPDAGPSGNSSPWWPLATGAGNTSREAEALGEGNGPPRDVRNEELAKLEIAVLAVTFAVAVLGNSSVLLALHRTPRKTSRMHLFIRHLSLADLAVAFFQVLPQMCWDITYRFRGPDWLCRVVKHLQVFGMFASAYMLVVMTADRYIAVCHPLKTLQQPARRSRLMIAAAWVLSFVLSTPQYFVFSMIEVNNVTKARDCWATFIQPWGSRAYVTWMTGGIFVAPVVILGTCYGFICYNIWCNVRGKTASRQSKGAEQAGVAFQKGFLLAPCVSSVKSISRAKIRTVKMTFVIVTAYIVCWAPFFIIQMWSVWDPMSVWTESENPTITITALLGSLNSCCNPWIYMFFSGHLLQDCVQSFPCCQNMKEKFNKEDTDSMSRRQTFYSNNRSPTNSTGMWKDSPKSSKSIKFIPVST
# TEST_DETAILS: V1a Human Vasopressin GPCR Cell Based Agonist Calcium Flux Assay
# PROTOCOL_CONDITIONS: Table 3; read-out: V1a Highest agonist effect (% of AVP); n = 2
MEASURED_METRIC: Emax

Solved entries:
MOL | RESULT
NCC(=O)NCCCC[C@H](NC(=O)[C@@H]1CCCN1C(=O)[C@@H]1CSSCCC(=O)N[C@@H](Cc2ccc(O)cc2)C(=O)N[C@@H](Cc2ccccc2)C(=O)N[C@@H](CCCC(N)=O)C(=O)N[C@@H](CC(N)=O)C(=O)N1)C(=O)NCC(N)=O | 40.3%
NC[C@H](N)C(=O)NCCCC[C@H](NC(=O)[C@@H]1CCCN1C(=O)[C@@H]1CSSCCC(=O)N[C@@H](Cc2ccc(O)cc2)C(=O)N[C@@H](Cc2ccccc2)C(=O)N[C@@H](CCCC(N)=O)C(=O)N[C@@H](CC(N)=O)C(=O)N1)C(=O)NCC(N)=O | 7.5%
NCC(=O)NCC(=O)NCC(=O)NCC(=O)NCC(=O)NCC(=O)NCC(=O)NCC(=O)NCC(=O)NCCCC[C@H](NC(=O)[C@@H]1CCCN1C(=O)[C@@H]1CSSCCC(=O)N[C@@H](Cc2ccc(O)cc2)C(=O)N[C@@H](Cc2ccccc2)C(=O)N[C@@H](CCCC(N)=O)C(=O)N[C@@H](CC(N)=O)C(=O)N1)C(=O)NCC(N)=O | 28.1%

Quote Emax reported for `NCC(=O)NCC(=O)NCCCC[C@H](NC(=O)[C@@H]1CCCN1C(=O)[C@@H]1CSSCCC(=O)N[C@@H](Cc2ccc(O)cc2)C(=O)N[C@@H](Cc2ccccc2)C(=O)N[C@@H](CCCC(N)=O)C(=O)N[C@@H](CC(N)=O)C(=O)N1)C(=O)NCC(N)=O` please. 37%
